# Target: TLR9 (Homo sapiens, UniProt Q9NR96)
# Construct: expressed in transfected cells; host or cells: HEK293
# Sequence (Q9NR96 26-1032): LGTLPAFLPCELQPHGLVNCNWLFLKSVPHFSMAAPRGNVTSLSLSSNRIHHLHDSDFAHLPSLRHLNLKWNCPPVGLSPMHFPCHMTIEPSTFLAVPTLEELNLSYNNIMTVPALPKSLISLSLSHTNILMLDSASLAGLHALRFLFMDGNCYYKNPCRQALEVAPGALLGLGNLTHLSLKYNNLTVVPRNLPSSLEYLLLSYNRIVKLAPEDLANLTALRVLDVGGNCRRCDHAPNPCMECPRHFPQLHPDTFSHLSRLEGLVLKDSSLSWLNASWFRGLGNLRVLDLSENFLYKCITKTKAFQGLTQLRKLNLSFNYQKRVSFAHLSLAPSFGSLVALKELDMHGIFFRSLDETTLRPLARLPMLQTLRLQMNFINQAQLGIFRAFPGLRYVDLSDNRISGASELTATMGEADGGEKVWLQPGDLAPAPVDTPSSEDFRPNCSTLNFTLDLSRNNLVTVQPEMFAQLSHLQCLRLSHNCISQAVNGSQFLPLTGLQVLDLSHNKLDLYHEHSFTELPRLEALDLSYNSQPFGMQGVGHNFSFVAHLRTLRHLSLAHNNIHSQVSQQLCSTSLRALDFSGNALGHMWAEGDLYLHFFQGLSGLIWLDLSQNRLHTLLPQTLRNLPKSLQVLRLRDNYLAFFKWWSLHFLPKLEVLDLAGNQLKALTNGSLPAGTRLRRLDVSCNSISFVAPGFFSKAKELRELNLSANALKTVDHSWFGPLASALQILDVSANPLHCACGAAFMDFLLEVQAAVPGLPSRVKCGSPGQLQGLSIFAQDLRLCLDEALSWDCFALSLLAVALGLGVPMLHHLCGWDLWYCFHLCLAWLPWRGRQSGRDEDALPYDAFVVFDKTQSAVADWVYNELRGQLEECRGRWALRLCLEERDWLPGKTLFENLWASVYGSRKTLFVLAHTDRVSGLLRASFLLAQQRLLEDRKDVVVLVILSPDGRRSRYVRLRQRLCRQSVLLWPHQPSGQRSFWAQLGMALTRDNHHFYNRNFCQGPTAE
# Test name: TLR9 screening of (+)-morphinan library, SEAP reporter in HEK293 cells expressing TLR9
# Type: cell-based
# Settings: 10 μM; activator ODN2006; control (no activator) 0.14, activator 1.42 OD
# OD 650 nm (mean ± sd) listing for each entry below
State the answer as a number, implicitly in OD.

- Molecule: "COc1ccc2c3c1O[C@@H]1C(=O)CC[C@@H]4[C@H](C2)N(C(=O)c2ccccc2)CC[C@@]314"
  Target: "TLR9 (Homo sapiens, UniProt Q9NR96)"
  Readout unit: "OD"
  OD 650 nm (mean ± sd): 1.37

Here is another molecule to look at.
The recorded OD 650 nm (mean ± sd) for entry COC1=CCC2[C@@H]3Cc4ccc(OC)c5c4[C@]2(CCN3C(=O)Oc2ccccc2)[C@@H]1O5 (some centres unmarked) equals 1.45

====

# Target: TLR9 (Homo sapiens, UniProt Q9NR96)
# Construct: expressed in transfected cells; host or cells: HEK293
# Test name: TLR9 screening of (+)-morphinan library, SEAP reporter in HEK293 cells expressing TLR9
# Format: cell-based
# Settings: 10 μM; activator ODN2006
Readout type: % Inhibition (mean) (%)
Just the number please, in %, no unit attached.

These recorded examples may help you get a feel for the data.
- Compound: "COc1ccc2c3c1O[C@@H]1C(=O)CC[C@@H]4[C@H](C2)N(C(=O)C2CC2)CC[C@@]314"
  Target: "TLR9 (Homo sapiens, UniProt Q9NR96)"
  Readout type: "% Inhibition (mean)"
  Readout number: 20
- Compound: "COc1ccc2c3c1O[C@@H]1C(O)CC[C@]4(O)[C@H](C2)N(CC2CC2)CC[C@@]314 (single isomer, unassigned) [II-53a]"
  Target: "TLR9 (Homo sapiens, UniProt Q9NR96)"
  Readout type: "% Inhibition (mean)"
  Readout number: 7
- Compound: "COC1=CCC2[C@@H]3Cc4ccc(OC)c5c4[C@]2(CCN3CC2CC2)[C@@H]1O5 (stereo partly drawn)"
  Target: "TLR9 (Homo sapiens, UniProt Q9NR96)"
  Readout type: "% Inhibition (mean)"
  Readout number: 69
- Compound: "C=CCN1CC[C@@]23c4c5ccc(OC)c4OC2C(OC(C)=O)CC[C@@H]3C1C5 (single isomer, unassigned) [II-94b]"
  Target: "TLR9 (Homo sapiens, UniProt Q9NR96)"
  Readout type: "% Inhibition (mean)"
  Readout number: 8
- Compound: "COc1ccc2c3c1O[C@@H]1C(O)CC[C@]4(O)[C@H](C2)N(CC2CC2)CC[C@@]314 (single isomer, unassigned) [II-53b]"
  Target: "TLR9 (Homo sapiens, UniProt Q9NR96)"
  Readout type: "% Inhibition (mean)"
  Readout number: 29

Form: compound = C=CCN1CC[C@@]23c4c5ccc(OC)c4OC2C(OC(C)=O)CC[C@@H]3C1C5 (single isomer, unassigned) [II-94a] ; % Inhibition (mean) = 18
